B1: glmS ribozyme (parent)
chain: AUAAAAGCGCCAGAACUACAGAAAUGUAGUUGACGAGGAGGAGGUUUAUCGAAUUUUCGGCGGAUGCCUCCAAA

- Variants of: B1
- experiment-notes: self-cleavage kobs at 40 uM GlcN6P; higher = faster cleavage; RNA array
- condition-summary: with glucosamine-6-phosphate
This sample holds only a part of the variants without activity.
Below, each of the variants is paired with its reported self-cleavage kobs at 40 uM GlcN6P value.

A selection of reference data follows.
>>> print(df.to_string())
                           ordered_residues        result
0  AUAAAAGCGCCAAAACUACAGAAAUGUAGUUGACGAGGAGGAGGUUUUUCGAAUUUUCGGCGGAUGCCUCCAAA   < 1e-05 s⁻¹
1  AUAAAAGCGCCAGUACUACAGAAAUGUAGUUAACGAGGAGGAGGUUUAUCGAAUUUUCGGCGGAUGCCUCCAAA  0.000167 s⁻¹
2  AUAAAAGCGCCAGAACUACAGAAAUGUAGUUGACGAGGAGGAUGUUUAUCGAAUUUUCGGCGGAUGCCUCCAAA   < 1e-05 s⁻¹

Below: the item to evaluate.
// sample "AUAAACGCGCCAGACCUACAGAAAUGUAGUUGACGAGGAGGAGGUUUAUCGAACUUUCGGCGGAUGCCUCUAAA" , its self-cleavage kobs at 40 uM GlcN6P was < 1e-05 s⁻¹
